B1: Poly(rC)-binding protein 1, residues 278 to 350; numbered along this chain, Q15365 (parent)
chain: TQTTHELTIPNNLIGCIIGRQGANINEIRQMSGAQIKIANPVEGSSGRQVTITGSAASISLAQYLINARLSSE

variants of: B1; assay: abundance fitness (aPCA) (normalised: wild type 0, dead -1); higher = more abundant; growth selection in yeast, the domain comes from the species named; settings: Homo sapiens
QUANTITY_NAME: abundance fitness
Output spec: single numeric token, no unit.

Examples from the recorded data:
R29S = -0.046
I18R = -0.636
H5Y = -0.083

Could you share which abundance fitness value was measured for R29M ?
-0.022

Also G33I , if possible.
-0.296

Also L61C , if possible.
0.022

Cited source: the Human Domainome abundance scans (Beltran et al. 2025)
